Measured values drawn from ChEMBL document CHEMBL1148973 for this set.

# System: SF-268
# Test Method Notes: Cytotoxicity against human SF268 cells after 48 hrs by SRB assay
# Format: functional
# Run Conditions: SF-268, 48 h
In this section we review reported GI50 values for a set of compounds.
Report the figure in µM without appending any unit label.

Sample answers from the record:
1) COc1cccc2c1C(=O)c1c(O)c3c(c(O)c1C2=O)C[C@@](O)(C(=O)CO)C[C@@H]3O[C@H]1C[C@H](N)[C@H](O)[C@H](C)O1 [DOXORUBICIN] : 0.093
2) COC(=O)/C(C)=C/[C@H](O)C[C@@H](C)[C@]1(C)CC(=O)C2=C3CC[C@H]4C(C)(C)[C@H](O)CC[C@]4(C)[C@H]3CC[C@]21C : 44.7
3) C[C@H](CC(=O)C[C@H](C)C(=O)O)C1=CC[C@@]2(C)[C@@H]3CC[C@H]4C(C)(C)[C@H](O)CC[C@]4(C)C3=CC[C@]12C : 34.8

// next entry
Input line: Give reported GI50 for COC(=O)/C(C)=C/[C@H]1C[C@@H](C)[C@]2(C)[C@@H](C=C3C4=C(CC[C@]32C)[C@@]2(C)CC[C@@H](O)C(C)(C)[C@@H]2CC4)O1 (SF-268)
Output line: 29.7

---

# System: NCI-H460
# Test Method Notes: Cytotoxicity against human NCI-H460 cells after 48 hrs by SRB assay
# Format: functional
# Run Conditions: NCI-H460, 48 h
Our labelling divides records by GI50 into ranges: low value (below 30 µM), medium value (30 µM to below 40 µM), high value (40 µM or more)

1) CC(=O)O[C@H]1CC[C@]2(C)C3=CC[C@]4(C)C([C@H](C)CC(=O)C[C@H](C)C(=O)O)=CC[C@@]4(C)[C@@H]3CC[C@H]2C1(C)C : low value
2) C/C(=C\C=C/[C@@H](C)[C@@]1(C)C[C@H]2O[C@]23[C@]1(C)CCC(=O)[C@@]31CC[C@H]2C(C)(C)[C@@H](O)CC[C@@]21C)C(=O)O : high value
3) COc1cccc2c1C(=O)c1c(O)c3c(c(O)c1C2=O)C[C@@](O)(C(=O)CO)C[C@@H]3O[C@H]1C[C@H](N)[C@H](O)[C@H](C)O1 : low value
4) C/C(=C\CC[C@@H](C)[C@@]1(C)C[C@H]2O[C@]23[C@]1(C)CCC(=O)[C@@]31CC[C@H]2C(C)(C)[C@@H](O)CC[C@@]21C)C(=O)O : high value
5) COC(=O)/C(C)=C/[C@H](O)C[C@@H](C)[C@]1(C)CC(=O)C2=C3CC[C@H]4C(C)(C)[C@H](O)CC[C@]4(C)[C@H]3CC[C@]21C : high value
6) C[C@H](CC(=O)C[C@H](C)C(=O)O)C1=CC[C@@]2(C)[C@@H]3CC[C@H]4C(C)(C)[C@H](O)CC[C@]4(C)C3=CC[C@]12C : medium value

Input line: // return the class label for COC(=O)/C(C)=C/[C@H]1C[C@@H](C)[C@]2(C)[C@@H](C=C3C4=C(CC[C@]32C)[C@@]2(C)CC[C@@H](OC(C)=O)C(C)(C)[C@@H]2CC4)O1
Output line: medium value

Input line: // return the class label for COC(=O)/C(C)=C/[C@H](O)C[C@@H](C)[C@]1(C)CC=C2C3=C(CC[C@]21C)[C@@]1(C)CC[C@@H](O)C(C)(C)[C@@H]1CC3
Output line: medium value

Input line: // return the class label for COC(=O)[C@@H](C)CC(=O)C[C@@H](C)C1=CC[C@@]2(C)[C@@H]3CC[C@H]4C(C)(C)[C@@H](O)CC[C@]4(C)C3=CC[C@]12C
Output line: high value
